# measured on: HLA-A*02:01 (Homo sapiens, UniProt P04439, D140Y/D185E/D98H/E176V/E277Q/G131W/G231S/I119V/I121R/I166T/I218V/L300P/L318F/N151K/N90K/P208A/P217A/Q86G/Q94H/R138H/R169H/T345S)
# procedure summary: MHC binding assay: UV-ligand exchange with β2m ELISA
# setup conditions: binding to HLA-A*02:01, UV-ligand exchange
assay readout: Peptide Exchange (peptide exchange yield)

{"biosequence": "SLFSVPFFL (listed as Homo sapiens) [SEQ ID NO: 28, HLA-A*02 peptide, source gene TM9SF1]", "recorded result": "“++++” (≥75% = ++++)"}
{"biosequence": "YILLQSPQL (listed as Homo sapiens) [SEQ ID NO: 18, HLA-A*02 peptide, source gene MUC6]", "recorded result": "“++++” (≥75% = ++++)"}
{"biosequence": "KLLDMELEM (listed as Homo sapiens) [SEQ ID NO: 39, HLA-A*02 peptide, source gene FAH]", "recorded result": "“++++” (≥75% = ++++)"}

Reference source for all entries: patent US11065314B2
